molecular target: CREBBP (1084-1701) (Homo sapiens, UniProt Q92793); construct: measured in the following biochemical assay using CREBBP (1084-1701); purchased; experiment: Biochemical assay for CREBBP (1084-1701), SAMDI; conditions: SAMDI, read-out: CREBBP Biochemistry IC50
Sequence (Q92793 1084-1701): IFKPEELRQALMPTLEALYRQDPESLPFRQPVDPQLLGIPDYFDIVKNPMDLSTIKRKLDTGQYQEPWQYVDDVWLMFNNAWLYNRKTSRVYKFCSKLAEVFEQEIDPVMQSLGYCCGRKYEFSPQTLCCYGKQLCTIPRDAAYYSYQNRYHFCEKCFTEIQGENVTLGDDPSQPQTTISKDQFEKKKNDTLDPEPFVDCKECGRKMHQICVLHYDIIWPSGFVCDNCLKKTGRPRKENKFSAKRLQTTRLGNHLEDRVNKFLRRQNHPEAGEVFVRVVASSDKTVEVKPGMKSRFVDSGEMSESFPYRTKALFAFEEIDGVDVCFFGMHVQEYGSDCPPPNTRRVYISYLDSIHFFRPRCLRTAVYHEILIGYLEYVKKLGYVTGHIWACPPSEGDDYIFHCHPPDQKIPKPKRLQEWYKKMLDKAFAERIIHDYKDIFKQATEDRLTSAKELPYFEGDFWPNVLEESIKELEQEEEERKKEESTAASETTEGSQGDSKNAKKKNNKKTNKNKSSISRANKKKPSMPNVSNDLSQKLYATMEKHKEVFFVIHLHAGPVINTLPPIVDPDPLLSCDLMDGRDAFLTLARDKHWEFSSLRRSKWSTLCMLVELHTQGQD
measurement.name: pIC50
Lab note: report pIC50 as minus log10 of the concentration in molar units, number only.

Return reported pIC50; argument: CCn1ncc(CN(C)C(=O)c2nc(Cc3ccccc3)nc3ccc(Cl)cc23)c1C
4.02

Suppose we examine the compound CCn1ncc(CN(C)C(=O)c2cc(-c3ccc(NC4CNCC4(F)F)c(C)n3)nc3ccc(Cl)cc23)c1C (stereo not shown) ; what pIC50 value has been reported?
7.05

pIC50 lookup needed for CCn1ncc([C@H](C)N(C)C(=O)c2cc(-c3ccc(NCCNC)c(C)n3)nc3ccc(Cl)cc23)c1C , thanks.
5.19

Would you mind telling me what pIC50 value was observed for CCn1ncc(CN(C)C(=O)c2cc(-c3cn(CCCNC(=O)OC(C)(C)C)cn3)nc3ccc(Cl)cc23)c1C ?
4.00

# input compound: CCn1ncc(CN(C)C(=O)c2nc(-c3ccccc3Cl)nc3ccccc23)c1C ; wanted: its pIC50
4.89

Would you kindly share the measured pIC50 for CCn1ncc(CN(C)C(=O)c2nc(-c3cnc[nH]3)nc3ccc(Cl)cc23)c1C ?
5.41

Would you kindly share the measured pIC50 for CCn1ncc(CN(C)C(=O)c2nc(-c3cc(C)cc(NCCN(C)C(=O)OC(C)(C)C)c3)nc3ccc(Cl)cc23)c1C ?
5.66

* * *

target: EP300 (P300(1048-1664)) (Homo sapiens); construct: P300(1048-1664); experiment: Biochemical assay for EP300, SAMDI; conditions: EP300, SAMDI; read-out: EP300 Biochemistry IC50
Sequence (Q09472 1048-1664): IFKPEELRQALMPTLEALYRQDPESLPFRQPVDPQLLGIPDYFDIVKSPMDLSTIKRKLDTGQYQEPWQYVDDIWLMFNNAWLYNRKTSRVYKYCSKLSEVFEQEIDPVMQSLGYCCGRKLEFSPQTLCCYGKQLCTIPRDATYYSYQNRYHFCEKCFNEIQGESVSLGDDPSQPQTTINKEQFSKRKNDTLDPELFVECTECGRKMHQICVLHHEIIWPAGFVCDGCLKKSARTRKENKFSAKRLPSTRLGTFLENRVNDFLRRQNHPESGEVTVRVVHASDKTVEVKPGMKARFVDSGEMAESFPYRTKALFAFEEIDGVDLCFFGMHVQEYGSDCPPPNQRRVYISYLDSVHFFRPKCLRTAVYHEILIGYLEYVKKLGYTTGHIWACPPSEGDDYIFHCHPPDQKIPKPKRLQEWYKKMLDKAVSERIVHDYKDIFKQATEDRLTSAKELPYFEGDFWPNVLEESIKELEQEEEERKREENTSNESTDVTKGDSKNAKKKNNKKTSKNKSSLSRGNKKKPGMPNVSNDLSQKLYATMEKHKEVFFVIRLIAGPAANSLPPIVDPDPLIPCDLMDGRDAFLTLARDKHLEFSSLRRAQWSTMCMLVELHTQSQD
Kindly apply the following: T if IC50 is less than 400 nM, F in every other case.

Dear colleague, could you confirm whether IC50 of CCc1noc(C(C)N(C)C(=O)c2nc(-c3cc4c(NC)[nH]nc4cc3C)nc3ccc(Cl)cc23)c1C (stereo not shown) falls below 400 nM? Thanks.
T

# TODO verify IC50 < 400 nM strictly for this compound: CCn1ncc(CN(C)C(=O)c2nc(-c3cc(C)c4c(c3)NCCN4)nc3ccc(Cl)cc23)c1C
F

Lab log: compare recorded IC50 with 400 nM; is it strictly lower for CCc1noc(CN(C)C(=O)c2nc(-c3cc4c(NC)[nH]nc4cc3C)nc3ccc(Cl)cc23)c1C ?
T

Hello, is IC50 of the following compound strictly smaller than 400 nM? CNc1[nH]nc2cc(C)c(-c3nc(C(=O)N(C)Cc4cnn(CC(F)(F)F)c4C)c4cc(Cl)ccc4n3)cc12
T

Please indicate whether the reported IC50 of CCn1ncc(CN(C)C(=O)c2cc(-c3ccc(NCC4CN(C)CCO4)c(C)n3)nc3ccc(Cl)cc23)c1C (stereo not shown) is strictly below 400 nM.
F

Identify whether the compound CCn1ncc(CN(C)C(=O)c2nc(-c3cc(C)c4c(c3)NC(=O)C4)nc3ccc(Cl)cc23)c1C records IC50 below 400 nM.
F

Just wondering, is IC50 of CCn1ncc(CN(C)C(=O)c2nc(-c3cc(C)c(OCCCNC)c(NC)c3)nc3ccc(Cl)cc23)c1C below 400 nM?
F
